tested on: sigma-1 receptor (σ1R); assay: σ1R radioligand binding ([3H](+)-pentazocine); set-up: species or system guinea pig; settings: ratio of σ2R Ki to σ1R Ki
READOUT LABEL: σ2/σ1 ratio
Lab note: record just the number, no unit beside it.

[Q] GET σ2/σ1 ratio | system: sigma-1 receptor (σ1R) | item: CC1CCN(CCCOc2ccc(-c3ccccc3)cc2)CC1
[A] 6.7

[Q] Please tell me the measured σ2/σ1 ratio for N#Cc1ccc(-c2ccc(OCCCN3CCC(c4ccncc4)CC3)cc2)cc1 ; system: sigma-1 receptor (σ1R).
[A] 2.2

[Q] State the measured σ2/σ1 ratio (sigma-1 receptor (σ1R)) of c1ccc(-c2ccc(OCCCN3CCCCCC3)cc2)cc1
[A] 13.2

[Q] Consider the compound c1ccc(-c2ccc(OCCCCN3CCCCC3)cc2)cc1 tested on sigma-1 receptor (σ1R); state its σ2/σ1 ratio.
[A] 0.3

----------
Experiment: pKa determination by potentiometric titration
Type: physicochemical
Settings: aqueous solution, experimental, potentiometric titration; read-out: pKa2
Protocol: In addition, we tested the amino alcohol fragments of these compounds to carefully monitor the influence of individual protonated nitrogen atoms on the obtained pKa values (Figure 4). […] Based on a previously modified potentiometric procedure,[27],[28] a series of titrations were performed, and the pKa values were determined using the Kostrowicki and Liwo algorithm.[29],[30] […] The lowest value was determined for 4-nitrophenyl, and the highest was for 2-methylphenyl derivatives.[32] […]
READOUT LABEL: pKa
Respond using a number only.

[Q] Specify pKa for OCCCN1CCNCC1 [3-(piperazin-1-yl)propan-1-ol, reference compound] and stop.
[A] 9.14

[Q] Given the compound OCCCN1CCN(c2ccncc2)CC1 [reference compound] , write its reported pKa.
[A] 1

[Q] Using known records, supply pKa for O=C(c1ccc(OCCCN2CCC(c3ccncc3)CC2)cc1)C1CC1
[A] 8.4

[Q] Return pKa (reported value) for this compound: OCCCN1CCC(c2ccncc2)CC1 [reference compound]
[A] 8.84
